- Experiment Notes: Permeability coefficient through artificial membrane in presence of unstirred water layer by PAMPA
Class key for Papp values: 0 (below 10 ×10⁻⁶ cm/s), 1 (10 ×10⁻⁶ cm/s to below 30 ×10⁻⁶ cm/s), 2 (30 ×10⁻⁶ cm/s or more)

The following compounds have reported results that may help.
[[record]]
compound = "Nc1cccc([N+](=O)[O-])c1"
label_value = 1

[[record]]
compound = "Oc1ccccc1Cl"
label_value = 2


Input line: Sort into band: Nc1cccc(Cl)c1
Output line: 2

Input line: # repeat for O=[N+]([O-])c1ccccc1O [NITROPHENOLATE]
Output line: 2

Input line: Queued: CC(C)(C)N(NC(=O)c1ccccc1)C(=O)c1ccccc1
Output line: 1

Input line: Note, next up: Oc1ccc(Cl)cc1Cl
Output line: 1

Input line: Please answer likewise for CCOP(=S)(OCC)Oc1cc(C)nc(C(C)C)n1 [DIMPYLATE]
Output line: 0
